Where do the numbers come from? From patent US20070280945A1.

# tested.target: T1, recombinant hIL-6R protein, monomeric form (human, UniProt P08887 20-358)
# T1 construct: also called monomeric hIL-6R; Human IL6R
# T1 sequence: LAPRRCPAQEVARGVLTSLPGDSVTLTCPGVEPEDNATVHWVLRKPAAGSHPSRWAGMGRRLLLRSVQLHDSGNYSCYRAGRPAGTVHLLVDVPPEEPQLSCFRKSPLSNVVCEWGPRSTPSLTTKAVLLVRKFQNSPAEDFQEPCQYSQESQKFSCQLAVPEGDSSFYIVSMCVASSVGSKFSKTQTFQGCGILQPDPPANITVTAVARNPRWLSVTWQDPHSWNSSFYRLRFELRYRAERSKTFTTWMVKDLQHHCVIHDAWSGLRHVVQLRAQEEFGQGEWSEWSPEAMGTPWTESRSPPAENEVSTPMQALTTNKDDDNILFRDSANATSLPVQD
# test.summary: Kinexa solution-phase competition immunoassay, monomeric hIL-6R
Property: pKd; scope: individual binders
Please keep in mind that pKd is minus log10 of the molar concentration; only the number is needed.

binder="VV6A9-5 (antibody, V domains shown, Human variable regions with mouse constant region; also called VV6A9-5 mIgG2a) VH: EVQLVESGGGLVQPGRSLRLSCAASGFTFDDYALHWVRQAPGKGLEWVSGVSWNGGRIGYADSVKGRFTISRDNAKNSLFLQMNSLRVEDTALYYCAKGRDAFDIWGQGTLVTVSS VL: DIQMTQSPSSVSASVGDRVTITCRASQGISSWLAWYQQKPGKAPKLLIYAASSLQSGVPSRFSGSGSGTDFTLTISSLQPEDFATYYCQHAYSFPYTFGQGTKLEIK" experimental_readout=pKd meas_value=10.49
binder="VV6C10-1 (antibody, V domains shown, Human variable regions with mouse constant region) VH: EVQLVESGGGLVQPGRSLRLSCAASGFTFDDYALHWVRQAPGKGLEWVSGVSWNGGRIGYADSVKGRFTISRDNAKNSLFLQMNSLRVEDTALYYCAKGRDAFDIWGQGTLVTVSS VL: EIVLTQSPATLSLSPGERATLSCRASQSVSSYLAWYQQKPGQAPRLLIYDASNRATGIPARFSGSGSGTDFTLTISSLEPEDFAFYYCQQRNNRPPFTFGPGTKVDVR" experimental_readout=pKd meas_value=8.69
binder="VV3D8-4 (antibody, V domains shown, Human variable regions with mouse constant region) VH: EVQLVESGGGLVQPGRSLRLSCAASGFTFDDYALHWVRQAPGKGLEWVSGISWNSGRIGYADSVKGRFTISRDNAKNSLFLQMNSLRAEDTALYYCAKGRDAFDIWGQGTLVTVSS VL: DIQMTQSPSSVSASVGDRVTITCRASQGISSWLAWYQQKPGKAPKLLIYAASSLQSGVPSRFSGSGSGTDFTLTISSLQPEDFATYYCQQANSFPYTFGQGTKLEIK" experimental_readout=pKd meas_value=8.72
binder="VQ8A9-6 (antibody, V domains shown, Human variable regions with mouse constant region (hybridoma-derived chimeric antibody); also called VQ8A9-6 mIgG1) VH: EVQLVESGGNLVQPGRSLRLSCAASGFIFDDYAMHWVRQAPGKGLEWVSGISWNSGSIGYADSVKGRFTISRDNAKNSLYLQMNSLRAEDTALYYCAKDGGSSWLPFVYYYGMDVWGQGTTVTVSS VL: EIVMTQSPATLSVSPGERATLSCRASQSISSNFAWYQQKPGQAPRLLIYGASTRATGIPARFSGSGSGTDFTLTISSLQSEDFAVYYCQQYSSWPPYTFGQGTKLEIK" experimental_readout=pKd meas_value=9.92
binder="VV1G4-7 (antibody, IgG2a, V domains shown, Human variable regions with mouse constant region) VH: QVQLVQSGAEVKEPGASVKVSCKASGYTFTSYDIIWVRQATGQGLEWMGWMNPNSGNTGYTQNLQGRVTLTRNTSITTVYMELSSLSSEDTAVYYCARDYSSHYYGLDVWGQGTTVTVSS VL: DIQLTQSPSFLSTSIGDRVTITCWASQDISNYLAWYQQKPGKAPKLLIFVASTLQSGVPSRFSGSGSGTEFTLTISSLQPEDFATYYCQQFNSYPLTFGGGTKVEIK" experimental_readout=pKd meas_value=9.71

Consider the record given below.
Consider the binder VQ8F11-21 (antibody, V domains shown, Human variable regions with mouse constant region; also called VQ8F11-21 mIgG2a) VH: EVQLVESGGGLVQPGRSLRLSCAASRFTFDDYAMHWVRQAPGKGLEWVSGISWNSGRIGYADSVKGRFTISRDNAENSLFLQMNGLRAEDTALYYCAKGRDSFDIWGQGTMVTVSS VL: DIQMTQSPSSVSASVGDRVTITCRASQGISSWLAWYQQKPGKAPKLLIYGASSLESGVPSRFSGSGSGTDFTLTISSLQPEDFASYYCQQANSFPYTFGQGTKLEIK and give its measured pKd.
11.05
